We begin with a simple list: items and their reported melting point.
Express your answer in °C, writing the number without its unit.

Recorded results for 3 molecules are shown here.
# molecule, melting point / °C
data = [
    ("CC12CCC(O)C=C1CCC1C2CCC2(C)C(c3ccc(=O)oc3)CCC12O (configuration not stated)", 235),
    ("O=C1C=CC(=O)c2c(O)cccc21", 162),
    ("Cc1ccc(OCCCCBr)cc1", 40),
]

Return value of melting point for input CC(c1cc2ccccc2s1)N(O)C(N)=O (configuration not stated) , no commentary. 157

* * *

melting point overview
Give a bare numeral; the unit °C is implied.

# compound, melting point, °C
records = [
    ("FC(F)(F)C(F)(F)C(F)(F)I", -95),
]

State its melting point for this compound: CC1C(=O)C23C(O)CC4C(C)(C)CCC(O)C4(CO)C2C(O)CC1C3O (centres undefined) 278

Let me know recorded melting point for c1ccc2c(-c3cccc4ccccc34)cccc2c1 , thanks. 160

Tell me melting point reported for O=c1c(C2CC(c3ccc(-c4ccc(Br)cc4)cc3)Cc3ccccc32)c(O)sc2ccccc12 (centres undefined) 235

Please report the measured melting point for CC12CCC(C(=O)OC1=O)C2(C)C (centres undefined) 221

Tell me melting point reported for NC(=O)CN1Cc2ccccc2OC1=O 203

Identify melting point associated with the compound CC1=CCC(O)(C(C)C)CC1 (centres undefined) 14.7

Return value of melting point for input N#Cc1cc([N+](=O)[O-])cc(Br)c1N , no commentary. 188

For O=C(O)CS(=O)(=O)CC(=O)O , write its melting point. 182

Retrieve melting point measured for CC(CCC(=O)O)C1CCC2C3C(=O)CC4CCCCC4(C)C3CC(=O)C12C (centres undefined) and print it. 176

Give recorded melting point. COC(=O)c1ccc(C)c(Cl)c1 29

Assign melting point to the following record: C=CC[C@H](NC(=O)OCC1c2ccccc2-c2ccccc21)C(=O)O 137
